Measured values drawn from PubChem BioAssay AID1347426 for this set.

METHOD_NOTES: Novel Modifiers of Survival Motor Neuron (SMN) Protein: Gene Identification via Genome-wide siRNA Screen;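 also: luminescence tracks full-length SMN protein made from the SMN2 reporter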
SETTINGS: HEK293T SMN2-luciferase reporter, siRNA knockdown, 72 h; actives lie on both sides
Among all 31,000 sequences or so, about 1,400 (4.5%) were called active. The sample as a whole holds a higher share of actives than the screen did.
PARAMETER: median seed-adjusted z-score

Exercise: Param item = GCAUGGUACUCUAUAGUCUTT against FAT4 ; retrieve measured median seed-adjusted z-score.
Solution: -0.363 (inactive)

Exercise: Consider the sequence GAGAAGACCUUUAUACGAATT against XPOT and give its measured median seed-adjusted z-score.
Solution: 0.366 (inactive)

Exercise: I'd like to know its median seed-adjusted z-score. The sequence in question is CGAUGGUUGACAAUCCAGATT against NDUFS5
Solution: -1.35 (active)

Exercise: Could you tell me which median seed-adjusted z-score is on file for GAACGUAAGAAAUACAAUUTT against HSPA4L ?
Solution: 0.288 (inactive)

Exercise: Tell me the measured median seed-adjusted z-score of CGAACUCCGCUUUUUCUUATT against FZD7 , please.
Solution: -0.159 (inactive)

Exercise: Entry UGAUGGUUGUGACAAUUGUTT against SUPT4H1 : reported median seed-adjusted z-score = ?
Solution: -1.01 (active)

Exercise: What does the record list as median seed-adjusted z-score for CAGUGGAUCUAUAUGAACATT against KIT ?
Solution: -0.686 (inactive)

Exercise: Can you look up the measured median seed-adjusted z-score of GAACUUACCUUCAACUACATT against NSD1 for me?
Solution: -0.372 (inactive)

Exercise: Request the reported median seed-adjusted z-score associated with GCAUCUUUUGGAGAUCGAATT against TC2N
Solution: 0.461 (inactive)

Exercise: Using the record for GGAACAUUUUUGACGGAUUTT against SCN8A , report its median seed-adjusted z-score.
Solution: 0 (inactive)

Exercise: # get_value(readout='median seed-adjusted z-score', item= GAUCCAGAAGGGUAGUUAUTT against SERPINB2 )
Solution: -0.0739 (inactive)

Exercise: For CCAGCUCUUCCAUACAAUATT against RAB9A , what is its reported median seed-adjusted z-score?
Solution: 0.247 (inactive)

Exercise: median seed-adjusted z-score lookup needed for CACCAGGUCUGGAUAUUGATT against SF3A1 , thanks.
Solution: -1.09 (active)

Exercise: State the recorded median seed-adjusted z-score for this entry: GAACUUCAUAGUACAGCGATT against CTNNAL1
Solution: 0.229 (inactive)

Exercise: Quick one: median seed-adjusted z-score for GAAACCAAGUCAUAUGAAATT against CRTAP ?
Solution: 0.581 (inactive)

Exercise: # query: median seed-adjusted z-score of entry GCUUCUCACGAGAUUGAAATT against SCARA3
Solution: -0.05 (inactive)

Exercise: Quick one: median seed-adjusted z-score of AAAUUCCCGUCAUUGAAAATT against SNRPA1 ?
Solution: -2.71 (active)

Exercise: Form field: reported median seed-adjusted z-score of GGACCUGAUUGAUGCCGUCTT against PYCR1
Solution: -0.171 (inactive)

Exercise: Return reported median seed-adjusted z-score; argument: GGAAUUCGAGGAUUAUGCATT against HIAT1
Solution: -0.0612 (inactive)

Exercise: If you can, please state the reported median seed-adjusted z-score value of GCAUAAAACUGAAGGUGGATT against PTPRN .
Solution: -0.272 (inactive)

Exercise: # lookup: median seed-adjusted z-score of CAAGAGAUAUCAUCGAUUATT against ZRANB3
Solution: 0.0516 (inactive)

Exercise: Entry CGAGCUGCACGUUCCUAUATT against IRF7 : reported median seed-adjusted z-score = ?
Solution: -0.304 (inactive)

Exercise: Query: median seed-adjusted z-score; subject: UCAUAAUUAUCUCACCAGATT against MEOX2
Solution: 1.36 (active)

Exercise: Give the measured median seed-adjusted z-score of GAAGCGACUGUUUUAGAAATT against EIF4E3 .
Solution: 0 (inactive)

Exercise: Requested field: median seed-adjusted z-score. Item: GAAUGAGGCAUAUCAAGCATT against TUBD1
Solution: -0.00491 (inactive)

Exercise: Quick check: median seed-adjusted z-score of CAUGGGACCUGAUUCAAGATT against FCER2 ?
Solution: -1.75 (active)
